assaySystem: Recombinant Human NF-kappaB-Inducing Kinase (NIK/MAP3K14) (Homo sapiens, UniProt Q99558)
Sequence (Q99558 whole entry): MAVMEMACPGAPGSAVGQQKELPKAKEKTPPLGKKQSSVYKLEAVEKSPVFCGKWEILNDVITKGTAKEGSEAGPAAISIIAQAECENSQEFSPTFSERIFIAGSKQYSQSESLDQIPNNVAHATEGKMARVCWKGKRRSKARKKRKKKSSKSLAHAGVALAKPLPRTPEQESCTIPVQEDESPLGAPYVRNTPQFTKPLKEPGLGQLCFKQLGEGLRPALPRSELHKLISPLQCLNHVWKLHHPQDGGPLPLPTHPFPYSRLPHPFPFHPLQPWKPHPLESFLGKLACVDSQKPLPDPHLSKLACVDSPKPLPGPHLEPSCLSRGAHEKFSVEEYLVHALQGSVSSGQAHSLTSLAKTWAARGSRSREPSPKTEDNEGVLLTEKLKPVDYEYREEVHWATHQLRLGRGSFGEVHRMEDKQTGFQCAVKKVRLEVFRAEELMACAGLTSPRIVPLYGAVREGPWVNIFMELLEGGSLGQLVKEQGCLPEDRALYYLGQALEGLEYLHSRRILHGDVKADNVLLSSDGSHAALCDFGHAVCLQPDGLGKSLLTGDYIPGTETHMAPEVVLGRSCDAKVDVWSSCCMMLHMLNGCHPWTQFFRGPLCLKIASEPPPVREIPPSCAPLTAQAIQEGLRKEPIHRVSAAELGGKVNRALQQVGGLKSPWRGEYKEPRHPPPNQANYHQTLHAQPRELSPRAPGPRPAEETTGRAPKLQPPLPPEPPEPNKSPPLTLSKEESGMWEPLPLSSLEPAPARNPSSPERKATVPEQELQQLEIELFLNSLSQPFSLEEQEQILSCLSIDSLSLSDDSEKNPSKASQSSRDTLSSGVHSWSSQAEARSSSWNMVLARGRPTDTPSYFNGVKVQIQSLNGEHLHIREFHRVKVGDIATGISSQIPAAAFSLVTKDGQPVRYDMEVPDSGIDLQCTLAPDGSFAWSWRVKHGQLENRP
protocolText: Biological Assay A2: inhibition of auto-phosphorylation of recombinant human NIK/MAP3K14 (AlphaScreen)
Assay type: biochemical
appliedConditions: auto-phosphorylation; averaged over all measurements on all batches; read-out: αscreen IC50
pIC50: −log10 of the molar value.
Each entry below carries its recorded pIC50.

{"columns": ["compound", "pIC50"],
 "data": [
  ["CC(C)(O)C#Cc1cc2c(-c3nc(N)ncc3F)cn(C3CCN(CCF)C3)c2cn1 (centres unmarked)", 7.27],
  ["COCC(C)n1cc(-c2nc(N)ncc2F)c2cc(C#CC(C)(O)C3CC3)ncc21 (centres unmarked)", 7.12],
  ["CC(O)(C#Cc1cc2c(-c3nc(N)ncc3F)cn(CC3CCCO3)c2cn1)C1CC1 (centres unmarked)", 7.55],
  ["COCCN1CCC(n2cc(-c3nc(N)ncc3F)c3cc(C#CC(C)(O)C4CC4)ncc32)CC1 (centres unmarked) [Compound 108]", 6.85],
  ["CC(C)(O)C#Cc1cc2c(-c3ccnc(N)n3)cn(CCCN3CC(=O)NC3=O)c2cn1", 7.85],
  ["CC(C)n1cc(-c2ccnc(N)n2)c2cc(C#CC3(O)CCCC3)ncc21", 8.10],
  ["COCCCn1cc(-c2cc(C)nc(N)n2)c2cc(C#CC(C)(C)O)ncc21", 7.00],
  ["CC(O)(C#Cc1cc2c(-c3nc(N)ncc3F)cn(C3COC3)c2cn1)C1CC1 (centres unmarked) [Compound 97]", 7.68]
]}
